system: Ps. aeruginosa, 32104; assay: Antibacterial activity (MIC), Ps. aeruginosa 32104; type: cell-based; details: Pseudomonas aeruginosa, 32104, Ps. aeruginosa
PARAMETER MEASURED: MIC (µg/mL)
# value in µg/mL; strip the unit string

As a guide, the following entries are already answered.
NC1CN(c2c(F)cc3c(=O)c(C(=O)O)cn(C4CC4)c3c2F)CC12CCCC2 (stereo not shown)
0.39
O=C(O)c1cn(C2CC2)c2c(Cl)c(N3CC(O)C4(CC4)C3)c(F)cc2c1=O (stereo not shown)
1.56
NC1CN(c2cc3c(cc2F)c(=O)c(C(=O)O)cn3C2CC2)CC12CC2 (racemic)
0.1

Here is another molecule to look at.
Quote MIC with test system Ps. aeruginosa, 32104 for NC1CN(c2cc3c(cc2F)c(=O)c(C(=O)O)cn3-c2ccc(F)cc2F)CC12CC2 (stereo not shown)
0.39

----------
test system: Ps. aeruginosa, 32121; assay: Antibacterial activity (MIC), Ps. aeruginosa 32121; type: cell-based; settings: Pseudomonas aeruginosa, 32121, Ps. aeruginosa
PARAMETER MEASURED: MIC (µg/mL)
# value in µg/mL; strip the unit string

// fetch MIC given entry NC1CN(c2c(F)cc3c(=O)c(C(=O)O)cn(C4CC4)c3c2F)CC12CCCC2 (stereo not shown) [Compound 95]
0.2

// fetch MIC given entry CC(C)(C)n1cc(C(=O)O)c(=O)c2cc(F)c(N3CC(N)C4(CC4)C3)nc21 (stereo not shown) [Compound 41b]
0.1

----------
tested on: Ps. aeruginosa, 32104; test: Antibacterial activity (MIC), Ps. aeruginosa 32104; format: cell-based; conditions: Pseudomonas aeruginosa, 32104, Ps. aeruginosa
PARAMETER MEASURED: MIC (µg/mL)
# value in µg/mL; strip the unit string

As a guide, the following entries are already answered.
NC1CN(c2nc3c(cc2F)c(=O)c(C(=O)O)cn3C2CC2)CC12CC2 (stereo not shown) [Compound 35]
0.1
O=C(O)c1cn(C2CC2)c2c(F)c(N3CC(CO)C4(CCC4)C3)c(F)cc2c1=O (stereo not shown)
1.56

// fetch MIC given entry C[C@H]1COc2c(N3CC(N)C4(CC4)C3)c(F)cc3c(=O)c(C(=O)O)cn1c23 (single isomer, unassigned; (-)) [Compound 36b]
0.2

----------
A set of molecules tested on Ser. marcescens, 10100, with measured MIC:

As a guide, the following entries are already answered.
NC1CN(c2c(F)cc3c(=O)c(C(=O)O)cn(C4CC4)c3c2F)CC12CC2 (single isomer, unassigned; (+)) [Compound 31a]
≤ 0.05 µg/mL
NC1CN(c2nc3c(cc2F)c(=O)c(C(=O)O)cn3C2CC2)CC12CC2 (single isomer, unassigned; (-)) [Compound 35b]
≤ 0.05 µg/mL
NC1CN(c2nc3c(cc2F)c(=O)c(C(=O)O)cn3C2CC2)CC12CC2 (stereo not drawn) [Compound 35]
≤ 0.05 µg/mL
N[C@@H]1CN(c2nc3c(cc2F)c(=O)c(C(=O)O)cn3-c2ccc(F)cc2F)CC12CC2 [Compound 111b]
0.1 µg/mL
C[C@H]1COc2c(N3CC(N)C4(CCC4)C3)c(F)cc3c(=O)c(C(=O)O)cn1c23 (stereo partly drawn) [Compound 98]
0.1 µg/mL
C[C@H]1COc2c(N3CC(N)C4(CC4)C3)c(F)cc3c(=O)c(C(=O)O)cn1c23 (stereo partly drawn) [Compound 36]
0.2 µg/mL
NC1CN(c2cc3c(cc2F)c(=O)c(C(=O)O)cn3C2CC2)CC12CC2 (racemic) [Compound 33]
0.1 µg/mL
Cc1c(N2CC(N)C3(CC3)C2)c(F)cc2c(=O)c(C(=O)O)cn(C3CC3)c12 (single isomer, unassigned; (-)) [Compound 55b]
0.1 µg/mL

Quote MIC with test system Ser. marcescens, 10100 for N[C@@H]1CN(c2cc3c(cc2F)c(=O)c(C(=O)O)cn3C2CC2)CC12CC2 [Compound 33b]
≤ 0.05 µg/mL

Quote MIC with test system Ser. marcescens, 10100 for O=C(O)c1cn(C2CC2)c2c(F)c(N3CC(CO)C4(CCC4)C3)c(F)cc2c1=O (stereo not drawn) [Compound 108]
1.56 µg/mL

Quote MIC with test system Ser. marcescens, 10100 for CC(C)(C)n1cc(C(=O)O)c(=O)c2cc(F)c(N3CC(N)C4(CC4)C3)nc21 (stereo not drawn) [Compound 41b]
0.1 µg/mL

Quote MIC with test system Ser. marcescens, 10100 for NC1CN(c2c(F)cc3c(=O)c(C(=O)O)cn(C4CC4)c3c2Cl)CC12CC2 (single isomer, unassigned) [Compound 32a]
0.1 µg/mL

Quote MIC with test system Ser. marcescens, 10100 for C[C@H]1COc2c(N3CC(N)C4(CC4)C3)c(F)cc3c(=O)c(C(=O)O)cn1c23 (single isomer, unassigned; (-)) [Compound 36b]
0.2 µg/mL

Quote MIC with test system Ser. marcescens, 10100 for NC1CN(c2c(F)cc3c(=O)c(C(=O)O)cn(C4CC4)c3c2F)CC12CCCC2 (stereo not drawn) [Compound 95]
0.1 µg/mL

Quote MIC with test system Ser. marcescens, 10100 for NC1CN(c2c(F)cc3c(=O)c(C(=O)O)cn(C4CC4)c3c2Cl)CC12CC2 (racemic) [Compound 32]
≤ 0.05 µg/mL

----------
system: Pr. vulgaris, 08601
This listing pairs compounds with measured MIC.

NC1CN(c2cc3c(cc2F)c(=O)c(C(=O)O)cn3-c2ccc(F)cc2F)CC12CC2 (stereo not drawn) [Compound 34]
0.2 µg/mL
Cc1c(N2CC(N)C3(CC3)C2)c(F)cc2c(=O)c(C(=O)O)cn(C3CC3)c12 (single isomer, unassigned; (-)) [Compound 55b]
≤ 0.05 µg/mL
NC1CN(c2c(F)cc3c(=O)c(C(=O)O)cn(C4CC4)c3c2Cl)CC12CC2 (racemic) [Compound 32]
≤ 0.05 µg/mL
CC(C)(C)n1cc(C(=O)O)c(=O)c2cc(F)c(N3CC(N)C4(CC4)C3)nc21 (stereo not drawn) [Compound 41b]
0.1 µg/mL
O=C(O)c1cn(C2CC2)c2cc(N3CCNC4(CC4)C3)c(F)cc2c1=O [Compound 37]
≤ 0.05 µg/mL

// fetch MIC given entry NC1CN(c2c(F)cc3c(=O)c(C(=O)O)cn(C4CC4)c3c2F)CC12CC2 (single isomer, unassigned; (+)) [Compound 31a]
≤ 0.05 µg/mL

// fetch MIC given entry NC1CN(c2nc3c(cc2F)c(=O)c(C(=O)O)cn3C2CC2)CC12CC2 (stereo not drawn) [Compound 35]
≤ 0.05 µg/mL

// fetch MIC given entry NC1CN(c2c(F)cc3c(=O)c(C(=O)O)cn(C4CC4)c3c2F)CC12CCC2 (stereo not drawn) [Compound 94]
≤ 0.05 µg/mL

// fetch MIC given entry C[C@H]1COc2c(N3CC(N)C4(CC4)C3)c(F)cc3c(=O)c(C(=O)O)cn1c23 (stereo partly drawn) [Compound 36]
≤ 0.05 µg/mL

// fetch MIC given entry O=C(O)c1cn(C2CC2)c2c(Cl)c(N3CC(O)C4(CC4)C3)c(F)cc2c1=O (stereo not drawn) [Compound 39]
≤ 0.05 µg/mL

// fetch MIC given entry NC1CN(c2c(F)cc3c(=O)c(C(=O)O)cn(C4CC4)c3c2Cl)CC12CC2 (single isomer, unassigned) [Compound 32a]
≤ 0.05 µg/mL

// fetch MIC given entry NC1CN(c2c(F)cc3c(=O)c(C(=O)O)cn(C4CC4)c3c2F)CC12CC2 (stereo not drawn) [Compound 31]
≤ 0.05 µg/mL

// fetch MIC given entry N[C@@H]1CN(c2nc3c(cc2F)c(=O)c(C(=O)O)cn3-c2ccc(F)cc2F)CC12CC2 [Compound 111b]
≤ 0.05 µg/mL

// fetch MIC given entry O=C(O)c1cn(C2CC2)c2c(F)c(N3CC(CO)C4(CCC4)C3)c(F)cc2c1=O (stereo not drawn) [Compound 108]
0.1 µg/mL

// fetch MIC given entry NC1CN(c2cc3c(cc2F)c(=O)c(C(=O)O)cn3C2CC2)CC12CC2 (racemic) [Compound 33]
≤ 0.05 µg/mL

----------
tested on: S. epidermidis, 56500; assay: Antibacterial activity (MIC), S. epidermidis 56500; type: cell-based; conditions: S. epidermidis
PARAMETER MEASURED: Antibacterial Activity (MIC) (µg/mL)
# value in µg/mL; strip the unit string

// fetch Antibacterial Activity (MIC) given entry NC1CN(c2c(F)cc3c(=O)c(C(=O)O)cn(C4CC4)c3c2F)CC12CC2 (single isomer, unassigned; (+)) [Compound 31a]
0.39

// fetch Antibacterial Activity (MIC) given entry NC1CN(c2c(F)cc3c(=O)c(C(=O)O)cn(C4CC4)c3c2Cl)CC12CC2 (single isomer, unassigned) [Compound 32a]
0.20
